Provenance of the data: patent US8940766B2

# systemName: recombinant human GCase (rhGCase; Cerezyme®) (Homo sapiens, UniProt P04062, R534H)
# Sequence (P04062 40-536 R534H): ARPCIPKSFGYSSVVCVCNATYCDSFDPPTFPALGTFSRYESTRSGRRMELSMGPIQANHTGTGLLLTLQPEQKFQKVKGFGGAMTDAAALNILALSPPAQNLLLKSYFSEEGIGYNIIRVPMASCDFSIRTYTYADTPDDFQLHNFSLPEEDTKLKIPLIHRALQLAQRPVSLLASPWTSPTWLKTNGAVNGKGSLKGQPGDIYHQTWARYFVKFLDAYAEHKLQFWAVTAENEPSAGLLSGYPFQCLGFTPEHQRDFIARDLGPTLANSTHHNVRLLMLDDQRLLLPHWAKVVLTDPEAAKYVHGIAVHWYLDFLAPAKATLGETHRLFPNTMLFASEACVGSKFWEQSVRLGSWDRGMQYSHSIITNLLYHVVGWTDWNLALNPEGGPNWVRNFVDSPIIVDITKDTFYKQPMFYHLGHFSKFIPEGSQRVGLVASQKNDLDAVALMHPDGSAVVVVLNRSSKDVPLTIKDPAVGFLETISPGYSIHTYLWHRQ
# protocolDetails: In vitro enzyme inhibition assay of rhGCase with 4-MU-β-D-Glc fluorogenic substrate
# conditionParameters: pH 5.2; average of three independent experiments
pIC50: −log10 of the molar value.
measurementKind: pIC50

>  <compound>
O[C@@H]1[C@@H](CCl)CNC[C@H]1O [Compound B]

>  <systemName>
recombinant human GCase (rhGCase; Cerezyme®) (Homo sapiens, UniProt P04062, R534H)

>  <measurementKind>
pIC50

>  <reportedMeasurement>
7.14

$$$$
